Target: Human PD-L1/PD-1 (Homo sapiens, UniProt Q9NZQ7)
Construct: made in house; host or cells: HEK293T
Sequence (Q9NZQ7 with tags, fused parts or gaps): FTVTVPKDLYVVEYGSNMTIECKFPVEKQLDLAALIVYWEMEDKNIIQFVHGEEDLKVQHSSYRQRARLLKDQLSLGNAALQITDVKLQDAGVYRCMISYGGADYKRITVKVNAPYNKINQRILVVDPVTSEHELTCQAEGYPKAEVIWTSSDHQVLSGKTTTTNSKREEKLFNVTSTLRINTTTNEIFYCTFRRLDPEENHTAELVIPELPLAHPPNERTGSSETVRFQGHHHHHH
Test: HTRF PD-1-Ig/PD-L1-His binding assay (human PD-L1)
Details: cluster symbol; read-out: HTRF IC50 cluster
pIC50: −log10 of the molar value. Positions of bridges follow the written chain, without caps; N, C: chain ends. Non-standard residues stand in square brackets, D forms with d. Residues, ends and D or L forms follow the SMILES beside them. ξ: configuration not given here. Phe(3-Me) = Cc1cccc(C[C@H](N)C(=O)O)c1; Hyp = O=C(O)[C@@H]1C[C@@H](O)CN1; dNMeNle = CCCC[C@@H](NC)C(=O)O; NMeNle = CCCC[C@H](NC)C(=O)O; NMeM = CN[C@@H](CCSC)C(=O)O; NMeA = CN[C@@H](C)C(=O)O; dDap = NC[C@@H](N)C(=O)O; Dab = NCC[C@H](N)C(=O)O; Dap = NC[C@H](N)C(=O)O; ξP = O=C(O)C1CCCN1; ξC = NC(CS)C(=O)O; Sar = CNCC(=O)O

- molecule: "CCCC[C@@H]1C(=O)N(C)[C@H](CCCC)C(=O)N[C@@H](CN)C(=O)N[C@@H](C(=O)NCC(N)=O)CSCC(=O)N[C@@H](Cc2ccc(O)cc2)C(=O)N2CCCC2C(=O)N[C@H](CC(=O)O)C(=O)N2CCC[C@H]2C(=O)N[C@H](CN)C(=O)N[C@@H](CCC(N)=O)C(=O)N2CCCC2C(=O)N[C@H](Cc2c[nH]c3ccccc23)C(=O)N[C@@H](CCN)C(=O)N[C@@H](Cc2c[nH]c3ccccc23)C(=O)N1C (stereo partly shown) [Example 1213] ({CH2CO}-Y[ξP][dD]P[dDap]Q[ξP][dW][Dab]W[dNMeNle][dNMeNle][Dap][dC]G-NH2; thioether N-14)"
  target_entity: "Human PD-L1/PD-1 (Homo sapiens, UniProt Q9NZQ7)"
  pIC50: "7.52 to 8.17"
- molecule: "CCCC[C@H]1C(=O)N(C)[C@@H](CCCC)C(=O)N[C@@H](CC(C)C)C(=O)N[C@H](C(=O)NCC(N)=O)CSCC(=O)N[C@@H](Cc2ccc(O)cc2)C(=O)N(C)[C@@H](C)C(=O)N[C@@H](CC(N)=O)C(=O)N2CCC[C@H]2C(=O)N[C@@H](CN)C(=O)N[C@@H](CC(C)C)C(=O)N2C[C@H](O)C[C@H]2C(=O)N[C@@H](Cc2c[nH]c3ccccc23)C(=O)N[C@@H](CO)C(=O)N[C@@H](Cc2c[nH]c3ccccc23)C(=O)N1C [Example 5070] ({CH2CO}-Y[NMeA]NP[Dap]L[Hyp]WSW[NMeNle][NMeNle]LCG-NH2; thioether N-14)"
  target_entity: "Human PD-L1/PD-1 (Homo sapiens, UniProt Q9NZQ7)"
  pIC50: "8.17 to 9.41"
- molecule: "CCCC[C@H]1C(=O)N[C@@H](CCCNC(=N)N)C(=O)NC(C(=O)NCC(N)=O)CSCC(=O)N[C@@H](Cc2ccc(O)cc2)C(=O)N(C)[C@@H](C)C(=O)N[C@@H](CC(N)=O)C(=O)N2CCC[C@H]2C(=O)N[C@@H](Cc2cnc[nH]2)C(=O)N[C@@H](CO)C(=O)N2C[C@H](O)C[C@H]2C(=O)N[C@@H](Cc2c[nH]c3ccccc23)C(=O)N[C@@H](CO)C(=O)N[C@@H](Cc2c[nH]c3ccccc23)C(=O)N(C)[C@@H](CCSC)C(=O)N1C (stereo partly shown) [Example 9113] ({CH2CO}-Y[NMeA]NPHS[Hyp]WSW[NMeM][NMeNle]R[ξC]G-NH2; thioether N-14)"
  target_entity: "Human PD-L1/PD-1 (Homo sapiens, UniProt Q9NZQ7)"
  pIC50: "7.52 to 8.17"
- molecule: "CCCC[C@H]1C(=O)N(C)[C@@H](CCCC)C(=O)N[C@@H](CCCNC(=N)N)C(=O)N[C@H](C(=O)NCC(N)=O)CSCC(=O)N[C@@H](Cc2ccccc2)C(=O)N(C)[C@@H](C)C(=O)N[C@@H](CC(N)=O)C(=O)N2CCC[C@H]2C(=O)N[C@@H](Cc2cnc[nH]2)C(=O)N[C@@H](CC(C)C)C(=O)N(C)CC(=O)N[C@@H](Cc2cccc(C)c2)C(=O)N[C@@H](CO)C(=O)N[C@@H](Cc2c[nH]c3ccccc23)C(=O)N1C [Example 1086] ({CH2CO}-F[NMeA]NPHL[Sar][Phe(3-Me)]SW[NMeNle][NMeNle]RCG-NH2; thioether N-14)"
  target_entity: "Human PD-L1/PD-1 (Homo sapiens, UniProt Q9NZQ7)"
  pIC50: "< 7.52"
